- TARGET SYSTEM: Serine racemase (Mus musculus)
- Sequence (Q9QZX7 whole entry): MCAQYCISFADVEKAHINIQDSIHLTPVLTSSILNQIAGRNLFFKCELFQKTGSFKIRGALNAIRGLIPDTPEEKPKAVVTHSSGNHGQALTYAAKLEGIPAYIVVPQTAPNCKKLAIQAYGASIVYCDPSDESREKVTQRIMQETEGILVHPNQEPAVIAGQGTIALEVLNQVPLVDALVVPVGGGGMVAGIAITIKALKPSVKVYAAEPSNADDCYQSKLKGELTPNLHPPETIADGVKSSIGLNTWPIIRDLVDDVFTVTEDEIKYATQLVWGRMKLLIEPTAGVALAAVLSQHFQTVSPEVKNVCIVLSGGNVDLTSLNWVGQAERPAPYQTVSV
- PROTOCOL SUMMARY: Inhibition of mouse recombinant serine racemase transfected in bacterial expression system
OBSERVATION TYPE: Ki (µM)

1: O=C(O)CC(=O)O [MALONIC ACID]
2: N[C@@H](C(=O)O)[C@H](O)C(=O)O
Asked: Consider 1 and 2 . Which of these has its Ki at a higher number? Answer with the label corresponding to your selection.
Given back: 1

---

- TARGET SYSTEM: Serine racemase (Mus musculus)
- PROTOCOL SUMMARY: Inhibition of mouse recombinant serine racemase expressed in Escherichia coli MC1061 assessed as formation of D-serine at 5 mM in phosphate buffer of pH 8 treated for 15 to 20 mins before addition of substrate by HPLC analysis in presence of 10 uM PLP
Active and inactive are the calls of the source. The calls are words filed in the database; no cut-off is given here.
Your reply should match one of these outcome classes. active, inactive

| MOLECULE | ASSIGNED CATEGORY |
| --- | --- |
| O=C(CC(=O)NO)NO [MALONODIHYDROXAMIC ACID] | active |
| N[C@@H](CC(=O)NO)C(=O)O | active |
| O=C(NO)C(=O)NO | inactive |

As a next step, examine the molecule that follows.
Asked: Which outcome was entered for the molecule O=C(CCC(=O)NO)NO [SUCCINODIHYDROXAMIC ACID] in this test?
Given back: active

---

- PROTOCOL SUMMARY: Binding affinity to pyridoxal-5'-phosphate assessed as formation of syn- and anti-PLP-aldoxime by NMR spectroscopy
Activity calls are given as the source filed them. The rule behind the calls is not given here.
Your reply should match one of these outcome classes. Yes for active, No for inactive

Worked examples follow.
| COMPOUND | ASSIGNED CATEGORY |
| --- | --- |
| CC(=O)NO | Yes |
| O=C(CCC(=O)NO)NO [SUCCINODIHYDROXAMIC ACID] | Yes |
| O=C(CCCCCCC(=O)NO)NO [SUBEROHYDROXAMIC ACID] | No |
| O=C(NO)C(=O)NO | No |

Asked: Which outcome was entered for the compound O=C(CC(=O)NO)NO [MALONODIHYDROXAMIC ACID] in this test?
Given back: Yes

Asked: Which outcome was entered for the compound O=C(CCCCCCC(=O)Nc1ccccc1)NO in this test?
Given back: Yes

Asked: Which outcome was entered for the compound O=C(CCCCC(=O)NO)NO in this test?
Given back: No

---

- PROTOCOL SUMMARY: Binding affinity to pyridoxal-5'-phosphate assessed as formation of PLP-aldoxime at 5 mM after 1 hr by UV/vis spectroscopy
The source made the active and inactive calls. No cut-off for these calls is given here.
Your reply should match one of these outcome classes. YES for active, NO for inactive

| COMPOUND | ASSIGNED CATEGORY |
| --- | --- |
| O=C(CCC(=O)NO)NO [SUCCINODIHYDROXAMIC ACID] | YES |
| CC(=O)NO | NO |
| O=C(CCCC(=O)NO)NO [GLUTARODIHYDROXAMIC ACID] | YES |
| O=C(CC(=O)NO)NO [MALONODIHYDROXAMIC ACID] | YES |
| O=C(CCCCCCC(=O)Nc1ccccc1)NO | NO |

Asked: Which outcome was entered for the compound N[C@@H](CC(=O)NO)C(=O)O in this test?
Given back: YES

Asked: Which outcome was entered for the compound O=C(CCCCC(=O)NO)NO in this test?
Given back: NO

Asked: Which outcome was entered for the compound O=C(NO)C(=O)NO in this test?
Given back: NO
